- Species: Rattus norvegicus
- assayText: DrugMatrix - Regimen: Daily Repeat
- Type: toxicity, organism-based, Sprague-Dawley
- Design: regimen Daily Repeat, gender Male, age 6-8 weeks
- recordedConditions: in vivo, po, 0 mg/kg, 120 h, tissue Plasma, route oral GAVAGE, dose level Control, time 5 day, vehicle 100 % WATER

compound	CREATININE / mg/dL
Cc1c(N(C)CS(=O)(=O)[O-])c(=O)n(-c2ccccc2)n1C.[Na+] [DIPYRONE SODIUM]	0.25
CCN(CC)CC#CCOC(=O)C(O)(c1ccccc1)C1CCCCC1 (centres undefined)	0.18
CCCc1nn(C)c2c(=O)[nH]c(-c3cc(S(=O)(=O)N4CCN(C)CC4)ccc3OCC)nc12	0.13
CCOC(N)=O	0.18
Nc1ccc(S(=O)(=O)Nc2nccs2)cc1	0.2
CCN[C@@H](C)Cc1cccc(C(F)(F)F)c1	0.58
O=C(O)c1cccnc1	0.23
O=P1(N(CCCl)CCCl)NCCCO1 (centres undefined) [CYCLOPHOSPHAMIDE ANHYDROUS]	0.17
CC[C@H]1OC(=O)[C@H](C)[C@@H](O[C@H]2C[C@@](C)(OC)[C@@H](O)[C@H](C)O2)[C@H](C)[C@@H](O[C@@H]2O[C@H](C)C[C@H](N(C)C)[C@H]2O)[C@](C)(O)C[C@@H](C)CN(C)[C@H](C)[C@@H](O)[C@]1(C)O	0.14

###

- Organism: Rattus norvegicus
- assayText: DrugMatrix - Regimen: Daily Repeat
- Type: toxicity, organism-based, Sprague-Dawley
- Parameters: regimen Daily Repeat, gender Male, age 6-8 weeks
- recordedConditions: in vivo, po, 0 mg/kg, 72 h, tissue Blood, route oral GAVAGE, dose level Control, time 3 day, […]
Outcome: YES for ABSOLUTE SEGMENTED NEUTROPHIL of at least 900 CELLS/uL; NO for anything lower.

molecule	label
CC(C)Cc1ccc(CC(=O)O)cc1 [IBUFENAC]	YES
CN(CCOc1ccc(CC2SC(=O)NC2=O)cc1)c1ccccn1 (configuration not stated) [ROSIGLITAZONE]	NO
C#C[C@]1(O)CC[C@H]2[C@@H]3CCc4cc(O)ccc4[C@H]3CC[C@@]21C [ETHINYL ESTRADIOL]	YES
NC[C@@H]1O[C@H](O[C@H]2[C@@H](O)[C@H](O[C@@H]3[C@@H](O)[C@H](N)C[C@H](N)[C@H]3O[C@H]3O[C@H](CN)[C@@H](O)[C@H](O)[C@H]3N)O[C@@H]2CO)[C@H](N)[C@@H](O)[C@@H]1O [FRAMYCETIN]	YES
CC[C@H](C)C(=O)O[C@H]1C[C@H](O)C=C2C=C[C@H](C)[C@H](CC[C@@H](O)C[C@@H](O)CC(=O)O)[C@H]21 [PRAVASTATIN]	NO
CC[C@H](C)C(=O)O[C@H]1C[C@@H](C)C=C2C=C[C@H](C)[C@H](CC[C@@H]3C[C@@H](O)CC(=O)O3)[C@H]21 [LOVASTATIN]	YES

###

- Species: Rattus norvegicus
- assayText: DrugMatrix - Regimen: Daily Repeat
- Type: toxicity, organism-based, Sprague-Dawley
- Set-up: regimen Daily Repeat, gender Male, age 6-8 weeks
- recordedConditions: in vivo, po, 100 mg/kg, 120 h, tissue Blood, route oral GAVAGE, dose level Low, time 5 day, vehicle .5 % CMC

molecule	MONOCYTE / %
CC=Cc1ccc(O)c(OC)c1 [ISOEUGENOL]	2.67
C#C[C@]1(O)CC[C@H]2[C@@H]3CCC4=Cc5oncc5C[C@]4(C)[C@H]3CC[C@@]21C [DANAZOL]	1
CC[C@]1(O)CC[C@H]2[C@@H]3CCC4=CCCC[C@@H]4[C@H]3CC[C@@]21C	2
Nc1nc2c(c(=O)[nH]1)N(C=O)C(CNc1ccc(C(=O)N[C@@H](CCC(=O)O)C(=O)O)cc1)CN2 (some centres undefined) [LEUCOVORIN]	0.33

###

TOTAL PROTEIN values, listed per item
- Species: Rattus norvegicus
- assayText: DrugMatrix - Regimen: Daily Repeat
- Format: toxicity, organism-based, Sprague-Dawley
- Set-up: regimen Daily Repeat, gender Male, age 6-8 weeks
- recordedConditions: in vivo, po, 0 mg/kg, 72 h, tissue Plasma, route oral GAVAGE, dose level Control, time 3 day, vehicle 100 % WATER

compound	TOTAL PROTEIN
Nc1ccc(S(=O)(=O)Nc2nccs2)cc1	6.08 G/DL
Cc1c(N(C)CS(=O)(=O)[O-])c(=O)n(-c2ccccc2)n1C.[Na+] [DIPYRONE SODIUM]	6.08 G/DL
CC[C@H]1OC(=O)[C@H](C)[C@@H](O[C@H]2C[C@@](C)(OC)[C@@H](O)[C@H](C)O2)[C@H](C)[C@@H](O[C@@H]2O[C@H](C)C[C@H](N(C)C)[C@H]2O)[C@](C)(OC)C[C@@H](C)C(=O)[C@H](C)[C@@H](O)[C@]1(C)O	5.9 G/DL

###

- Species on record: Rattus norvegicus
- assayText: DrugMatrix - Regimen: Daily Repeat
- Type: toxicity, organism-based, Sprague-Dawley
- Parameters: regimen Daily Repeat, gender Male, age 6-8 weeks
- recordedConditions: in vivo, ip, 40 mg/kg, […], tissue Blood, route intraperitoneal, dose level High, time 14 day, vehicle 100 % SALINE
parameter: ABSOLUTE LYMPHOCYTE

1. NC[C@H]1O[C@H](O[C@H]2[C@H](O)[C@@H](O[C@H]3O[C@H](CO)[C@@H](O)[C@H](N)[C@H]3O)[C@H](N)C[C@@H]2N)[C@H](N)C[C@@H]1O 7970 cells/µL

###

Each item that follows carries a reported GLUCOSE.
- Organism: Rattus norvegicus
- assayText: DrugMatrix - Regimen: Daily Repeat
- Assay type: toxicity, organism-based, Sprague-Dawley
- Set-up: regimen Daily Repeat, gender Male, age 6-8 weeks
- recordedConditions: in vivo, po, 0 mg/kg, 72 h, tissue Plasma, route oral GAVAGE, dose level Control, time 3 day, vehicle 100 % WATER
parameter: GLUCOSE

molecule	parameter	result
CC[C@H]1OC(=O)[C@H](C)[C@@H](O[C@H]2C[C@@](C)(OC)[C@@H](O)[C@H](C)O2)[C@H](C)[C@@H](O[C@@H]2O[C@H](C)C[C@H](N(C)C)[C@H]2O)[C@](C)(OC)C[C@@H](C)C(=O)[C@H](C)[C@@H](O)[C@]1(C)O [CLARITHROMYCIN]	GLUCOSE	173.17 mg/dL
OCCO [ETHYLENE GLYCOL]	GLUCOSE	148 mg/dL
CNS(=O)(=O)Cc1ccc2[nH]cc(CCN(C)C)c2c1	GLUCOSE	173.83 mg/dL
Cc1c(N(C)CS(=O)(=O)[O-])c(=O)n(-c2ccccc2)n1C.[Na+] [DIPYRONE SODIUM]	GLUCOSE	158.33 mg/dL
O=C(O)c1cc(=O)c2c(OCC(O)COc3cccc4oc(C(=O)O)cc(=O)c34)cccc2o1 [CROMOLYN]	GLUCOSE	185.67 mg/dL
CCN[C@@H](C)Cc1cccc(C(F)(F)F)c1 [DEXFENFLURAMINE]	GLUCOSE	175 mg/dL
Nc1ccc(S(=O)(=O)Nc2nccs2)cc1 [SULFATHIAZOLE]	GLUCOSE	135.67 mg/dL
CCCCCCCCCCCCCCCC[n+]1ccccc1.[Br-]	GLUCOSE	154.5 mg/dL
CCCc1nn(C)c2c(=O)[nH]c(-c3cc(S(=O)(=O)N4CCN(C)CC4)ccc3OCC)nc12	GLUCOSE	148 mg/dL

###

- Species on record: Rattus norvegicus
- assayText: DrugMatrix - Regimen: Daily Repeat
- Type: toxicity, organism-based, Sprague-Dawley
- Set-up: regimen Daily Repeat, gender Male, age 6-8 weeks
- recordedConditions: in vivo, po, 0 mg/kg, 120 h, tissue Plasma, route oral GAVAGE, dose level Control, time 5 day, vehicle .5 % CMC
This section presents compounds with their documented ALBUMIN values.
parameter: ALBUMIN (G/DL)

compound	numericReadout
Cc1cnc(C(=O)NCCc2ccc(S(=O)(=O)NC(=O)NC3CCCCC3)cc2)cn1 [GLIPIZIDE]	4.27
CCOC(=O)[C@H](CCc1ccccc1)N[C@@H](C)C(=O)N1Cc2ccccc2C[C@H]1C(=O)O	4.27
COc1ccc(/C=C/C(=O)Nc2ccccc2C(=O)O)cc1OC	4.38
CN1C(=O)CN=C(c2ccccc2)c2cc(Cl)ccc21 [DIAZEPAM]	4.22
CC(C(=O)O)c1ccc(-c2ccccc2)c(F)c1 (configuration not stated) [FLURBIPROFEN]	4.38
C[C@@H]1CC[C@H]2[C@@H](C)C(=O)O[C@@H]3O[C@@]4(C)CC[C@@H]1[C@]32OO4 [ARTEMISININ]	4.2
CO[C@H]1C[C@@H]2CC[C@@H](C)[C@@](O)(O2)C(=O)C(=O)N2CCCC[C@H]2C(=O)O[C@H]([C@H](C)C[C@@H]2CC[C@@H](O)[C@H](OC)C2)CC(=O)[C@H](C)/C=C(\C)[C@@H](O)[C@@H](OC)C(=O)[C@H](C)C[C@H](C)/C=C/C=C/C=C/1C [SIROLIMUS]	4.27
